Record form. Attribute: IC50, ISRE assay. Fill in for each entry.
# assay.system: IFN-αC (human, UniProt P01566 24-189)
# measurement.protocol: cell-based or functional assay
Answers are plain numbers, in nM.

>  <binder>
IFWM3416 (antibody, IgG1, V domains shown, mAb; IgG1/kappa said of the parent and of selected mAbs; also called IFWB3151) VH: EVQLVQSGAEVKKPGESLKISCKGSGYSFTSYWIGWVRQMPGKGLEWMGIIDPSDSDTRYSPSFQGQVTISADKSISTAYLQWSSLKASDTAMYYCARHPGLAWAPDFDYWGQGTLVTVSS VL: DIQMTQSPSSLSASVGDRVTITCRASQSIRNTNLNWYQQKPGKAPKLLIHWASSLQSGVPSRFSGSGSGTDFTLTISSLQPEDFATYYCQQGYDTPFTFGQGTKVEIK

>  <IC50, ISRE assay [nM]>
0.112

$$$$

Now look at this one.
Req: Any idea what IC50, ISRE assay was measured for IFWM3307 (antibody, IgG1, V domains shown) VH: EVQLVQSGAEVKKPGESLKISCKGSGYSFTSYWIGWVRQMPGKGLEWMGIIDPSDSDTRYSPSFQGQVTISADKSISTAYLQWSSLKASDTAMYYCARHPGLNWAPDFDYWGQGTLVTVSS VL: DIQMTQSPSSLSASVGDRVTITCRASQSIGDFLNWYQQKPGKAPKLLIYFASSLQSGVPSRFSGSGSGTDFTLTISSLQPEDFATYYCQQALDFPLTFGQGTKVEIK ?
Resp: 0.583
